target: UniProtKB Q9Y5N1; assay: H3 Receptor Binding (Human) Method 2, [125I]-iodoproxyfan competitive radioligand binding; set-up: expressed in transfected cells; details: read-out: Human H3 Ki
Sequence (Q9Y5N1 whole entry): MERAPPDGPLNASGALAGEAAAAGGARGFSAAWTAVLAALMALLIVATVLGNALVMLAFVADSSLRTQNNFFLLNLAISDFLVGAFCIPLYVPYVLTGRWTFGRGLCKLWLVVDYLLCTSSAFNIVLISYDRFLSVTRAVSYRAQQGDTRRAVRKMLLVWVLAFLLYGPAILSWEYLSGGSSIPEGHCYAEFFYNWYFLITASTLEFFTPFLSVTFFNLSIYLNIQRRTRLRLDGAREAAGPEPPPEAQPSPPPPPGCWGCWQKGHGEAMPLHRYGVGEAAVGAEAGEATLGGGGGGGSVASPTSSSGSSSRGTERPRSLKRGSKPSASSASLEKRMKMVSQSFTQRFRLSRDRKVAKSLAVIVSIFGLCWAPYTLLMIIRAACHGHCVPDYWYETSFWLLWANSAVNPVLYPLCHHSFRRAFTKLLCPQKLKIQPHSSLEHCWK
pKi: −log10 of the molar value.
readout_type: pKi

CC(C)(C)OC(=O)N1CC[C@@H](Oc2cccc(F)c2)[C@H]1C(=O)N1CCCN(C2CCC2)CC1 [Example 143] : 6.07

[P] CC(C)(C)OC(=O)N1C[C@H](Oc2ccccn2)C[C@H]1C(=O)N1CCCN(C2CCC2)CC1 (stereo in doubt) [Example 50]
[Q] CC(C)(C)OC(=O)N1C[C@H](Cc2cccc(F)c2)C[C@H]1C(=O)N1CCCN(C2CCC2)CC1 [Example 175]
[R] CC(C)N1C[C@@H](Oc2ccc(F)cc2)C[C@H]1C(=O)N1CCCN(C2CCC2)CC1 [Example 108]
[S] CC(C)(C)OC(=O)N1C[C@H](O)C[C@@H]1C(=O)N1CCCN(C2CC2)CC1 [Example 5]
Qu. Highest pKi first, then in falling order down to the smallest. Would you mind listing the labels in the order requested?
Ans. P, Q, R, S

[P] O=C([C@H]1C[C@H](Oc2ccc(C(F)(F)F)cc2)CN1)N1CCCN(C2CCC2)CC1 [Example 75]
[Q] CC(C)(C)OC(=O)N1C[C@H](Oc2cccc(F)c2)C[C@@H]1C(=O)N1CCCN(C2CCC2)CC1 [Example 55]
Qu. Could you point out whether the larger pKi belongs to P or to Q ? Respond using the label that marks the chosen record.
Ans. P
